These data points were gathered from PubChem BioAssay (EPA / NIEHS).

Target: Paired box protein Pax-6 (Homo sapiens) (UniProt P26367)
Sequence (P26367 whole entry, looked up): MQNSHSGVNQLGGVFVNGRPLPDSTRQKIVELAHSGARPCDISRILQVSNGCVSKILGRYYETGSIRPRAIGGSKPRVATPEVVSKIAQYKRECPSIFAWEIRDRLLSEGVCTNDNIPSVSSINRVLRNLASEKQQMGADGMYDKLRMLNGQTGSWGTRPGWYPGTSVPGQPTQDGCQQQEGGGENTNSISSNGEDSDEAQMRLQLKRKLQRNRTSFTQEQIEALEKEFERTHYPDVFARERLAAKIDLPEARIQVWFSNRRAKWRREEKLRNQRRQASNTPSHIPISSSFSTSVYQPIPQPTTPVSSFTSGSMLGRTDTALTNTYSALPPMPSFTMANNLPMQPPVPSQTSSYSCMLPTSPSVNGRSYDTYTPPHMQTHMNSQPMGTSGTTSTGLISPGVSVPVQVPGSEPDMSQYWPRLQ
Experiment: ATG_Pax6_CIS: Attagene CIS-FACTORIAL HepG2 Assay for human Paired Box 6 (PAX6) (AID 2282956)
Details: HepG2 CIS-FACTORIAL PAX6 reporter transcription, RNA readout; actives raise or lower the signal
The source made the active and inactive calls. How the source made its calls: active means hit-call score of the fitted dose curve at least 0.9, where 1 is the maximum; inactive means score below 0.9.
Labels: active, inactive

Molecule: CCC(=O)C(CC(C)N(C)C)(c1ccccc1)c1ccccc1 (stereo unspecified)
Classification: inactive

Molecule: O=CC=O
Classification: inactive

Molecule: CCC(C)c1cccc(C(C)CC)c1O (stereo unspecified)
Classification: inactive

Molecule: CN(C)N=O
Classification: inactive

Molecule: N#CCCO
Classification: inactive

Molecule: Nc1cccc(Cl)c1
Classification: inactive

Molecule: COc1ccc(C=O)cc1OC
Classification: inactive

Molecule: O=C1C(Cl)=C(Cl)C(=O)c2ccccc21
Classification: inactive

Molecule: CCCCP(CCCC)CCCC
Classification: inactive

Molecule: CCC(C)(C)c1ccc(O)c(C(C)(C)CC)c1
Classification: inactive

Molecule: COC[C@H](C)N(C(=O)CCl)c1c(C)csc1C
Classification: inactive

Molecule: CCOP(OCC)OCC
Classification: inactive

Molecule: CC(C)(c1ccc(OCC2CO2)cc1)c1ccc(OCC2CO2)cc1 (stereo unspecified)
Classification: active

Molecule: C[C@@H]1C[C@@H]([C@H](O)CC2CC(=O)NC(=O)C2)C(=O)[C@@H](C)C1
Classification: inactive

Molecule: CC(=O)OC(c1ccccc1)C(Cl)(Cl)Cl (stereo unspecified)
Classification: inactive

Molecule: CCCCCCCCC(=O)NCc1ccc(O)c(OC)c1
Classification: inactive

Molecule: CC(=O)c1cc(C(C)(C)C)cc2c1CCC2(C)C
Classification: active

Molecule: C[C@]12CCC(=O)C[C@@H]1CC[C@@H]1[C@@H]2CC[C@]2(C)[C@@H](O)CC[C@@H]12
Classification: inactive

Molecule: NNC(=S)NN
Classification: inactive

Molecule: COP(=O)(OC)OC
Classification: inactive

Molecule: CC1(C)Cc2cccc(O)c2O1
Classification: inactive

Molecule: O=C(NCO)NCO
Classification: inactive

Molecule: CC(C#N)CCC#N (stereo unspecified)
Classification: inactive

Molecule: CC(=O)[O][Hg][c]1ccccc1
Classification: inactive

Molecule: COc1cccc(C=O)c1
Classification: inactive

Molecule: O=C(CCl)CCl
Classification: active

Molecule: CC1CN1P(=O)(N1CC1C)N1CC1C (stereo unspecified)
Classification: inactive

Molecule: CC(C)c1ccc(CO)cc1
Classification: inactive

Molecule: C[C@H]1CCCC(=O)CCC/C=C/c2cc(O)cc(O)c2C(=O)O1
Classification: inactive

Molecule: NC(=O)O
Classification: inactive

Molecule: CC1(C)CCC(Cc2ccc(Cl)cc2)C1(O)Cn1cncn1 (stereo unspecified)
Classification: inactive

Molecule: O=C/C=C/c1ccccc1
Classification: inactive

Molecule: C1CCC(NC2CCCCC2)CC1
Classification: inactive

Molecule: ClCc1cccnc1
Classification: active

Molecule: COC(=O)Cc1ccccc1
Classification: inactive

Molecule: ClC1=C(Cl)[C@]2(Cl)[C@H]3[C@H]([C@H]4C=C[C@H]3C4)[C@@]1(Cl)C2(Cl)Cl
Classification: inactive

Molecule: CC(C)c1cccc(C(C)C)c1O
Classification: inactive

Molecule: CCCCC(CC)CO[N+](=O)[O-] (stereo unspecified)
Classification: inactive

Molecule: C=C(C)C#N
Classification: inactive

Molecule: O=C(c1ccccc1)C(Cl)Cl
Classification: active

Molecule: Clc1ccc(COC(Cn2ccnc2)c2ccc(Cl)cc2Cl)cc1 (stereo unspecified)
Classification: inactive

Molecule: CC(=O)C=C(C)C
Classification: inactive

Molecule: CCOP(=S)(OCC)Oc1ccc(S(C)=O)cc1 (stereo unspecified)
Classification: inactive

Molecule: CC(C)(OO)c1ccccc1
Classification: inactive

Molecule: O=[N+]([O-])c1c(Cl)c(Cl)cc(Cl)c1Cl
Classification: inactive

Molecule: CC(=[OH+])/C=C(/C)[O-].CC(=[OH+])/C=C(/C)[O-].CC(=[OH+])/C=C(/C)[O-].[Fe]
Classification: inactive

Molecule: O=P(O)(O)CN(CP(=O)(O)O)CP(=O)(O)O
Classification: inactive

Molecule: COS(=O)(=O)c1ccc(C)cc1
Classification: inactive

Molecule: CNC
Classification: inactive

Molecule: Cn1sc(Cl)cc1=O
Classification: inactive

Molecule: COc1ccc(OC)c(C=O)c1
Classification: inactive

Molecule: Oc1ccc(-c2ccccc2)cc1
Classification: active

Molecule: C[C@]12CC[C@H](O)CC1=CC[C@@H]1[C@@H]2CC[C@]2(C)C(=O)CC[C@@H]12
Classification: inactive

Molecule: CCCCCCCCc1ccc(O)cc1
Classification: inactive

Molecule: C=CC(=O)N(C)C
Classification: inactive

Molecule: OCC(O)CCl (stereo unspecified)
Classification: inactive

Molecule: CCOP(=S)(OCC)SCCS(=O)(=O)CC
Classification: inactive

Molecule: CC(C)C1CCC(Cc2ccc(Cl)cc2)C1(O)Cn1cncn1 (stereo unspecified)
Classification: inactive

Molecule: O=Cc1cccc(Oc2ccccc2)c1
Classification: inactive

Molecule: NC(=S)Nc1ccccc1
Classification: inactive

Molecule: CCC1(c2ccc(N)cc2)CCC(=O)NC1=O (stereo unspecified)
Classification: inactive
